tested.on: UniProt:O02747
experiment: Binding affinity for aryl hydrocarbon receptor (AhR) of rabbit liver cytosol incubated with 0.2 nM [3H]-TCDD; Agonist
metric: pKi
Give bare numbers, as −log10 of the molar value.

Query: Quick one: pKi for FC(F)(F)c1ccc(/C=C/c2cc(Cl)cc(Cl)c2)cc1 ?
Result: 9.70

###

Tested on: MCF7
experiment: Tested for cytotoxicity towards MCF-7 cell line (human breast cancer)
Type: functional, cell-based
metric: Concentration

Count: 5. Required value per item: Concentration.
1. CCOc1ccc(/C=C\c2cc(OC)cc(OC)c2)cc1
2. CCCCOc1ccc(/C=C/c2cc(OC)cc(OC)c2)cc1
3. COc1cc(/C=C\c2ccc(F)cc2)cc(OC)c1
4. CCOc1ccc(/C=C/c2cc(OC)cc(OC)c2)cc1
5. Clc1ccc(/C=C\c2cc(Cl)cc(Cl)c2)cc1

Result:
["< 0.1 µM", "> 10 µM", "> 10 µM", "< 0.1 µM", "< 100 µM"]

Count: 2. Required value per item: Concentration.
1. COc1cc(/C=C/c2ccc(F)cc2)cc(OC)c1
2. COc1ccc(/C=C/c2cc(OC)cc(OC)c2)cc1

Result:
1. > 10 µM
2. < 100 µM

###

For each entry below, report its Ki value.
tested.on: Aryl hydrocarbon receptor (Oryctolagus cuniculus, UniProt O02747)
Sequence (O02747 whole entry): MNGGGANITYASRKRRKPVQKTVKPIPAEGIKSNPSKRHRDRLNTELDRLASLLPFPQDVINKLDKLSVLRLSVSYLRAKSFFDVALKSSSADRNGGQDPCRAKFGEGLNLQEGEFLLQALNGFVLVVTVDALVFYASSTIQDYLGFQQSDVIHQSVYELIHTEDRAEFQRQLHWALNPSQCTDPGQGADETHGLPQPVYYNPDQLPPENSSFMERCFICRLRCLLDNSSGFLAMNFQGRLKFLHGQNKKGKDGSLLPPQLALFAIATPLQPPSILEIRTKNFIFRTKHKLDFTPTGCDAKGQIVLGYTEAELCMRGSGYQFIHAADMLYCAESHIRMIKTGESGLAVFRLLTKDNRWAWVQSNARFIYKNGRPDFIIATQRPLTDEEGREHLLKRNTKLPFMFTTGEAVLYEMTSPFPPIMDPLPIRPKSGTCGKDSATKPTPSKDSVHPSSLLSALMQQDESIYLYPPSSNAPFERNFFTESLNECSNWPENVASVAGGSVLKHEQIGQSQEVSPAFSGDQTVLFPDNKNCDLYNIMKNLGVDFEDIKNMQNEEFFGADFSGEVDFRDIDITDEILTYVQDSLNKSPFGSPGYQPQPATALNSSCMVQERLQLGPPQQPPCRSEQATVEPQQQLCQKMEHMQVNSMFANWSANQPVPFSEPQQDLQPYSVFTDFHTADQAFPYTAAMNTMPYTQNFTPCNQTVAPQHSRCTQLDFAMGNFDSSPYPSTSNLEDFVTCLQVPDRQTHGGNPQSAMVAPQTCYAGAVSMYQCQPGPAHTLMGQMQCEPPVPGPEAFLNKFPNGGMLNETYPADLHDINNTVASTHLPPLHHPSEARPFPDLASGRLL
experiment: Binding affinity for aryl hydrocarbon receptor (AhR) of rabbit liver cytosol incubated with 0.2 nM [3H]-TCDD; Antagonist
Answers are plain numbers, in nM.

> print(dat)
                            compound.string  result.unit  value.reported
1  FC(F)(F)c1ccc(/C=C/c2cc(C(F)(F)F)cc(C(F)(F)F)c2)cc1           nM             2.1

Count: 4. Required value per item: Ki.
1. COc1ccc(/C=C/c2cc(OC)cc(OC)c2)cc1
2. FC(F)(F)c1ccc(/C=C\c2cc(C(F)(F)F)cc(C(F)(F)F)c2)cc1
3. CCCCOc1ccc(/C=C\c2cc(OC)cc(OC)c2)cc1
4. FC(F)(F)c1cccc(/C=C/c2cc(Cl)cc(Cl)c2)c1

Result:
7.7
60
43
6.8

Count: 5. Required value per item: Ki.
1. Fc1ccc(/C=C/c2cc(F)cc(F)c2)cc1
2. COc1cc(/C=C/c2ccc(F)cc2)cc(OC)c1
3. Fc1ccc(/C=C\c2cc(F)cc(F)c2)cc1
4. COc1cccc(/C=C/c2cc(Cl)cc(Cl)c2)c1
5. COc1ccc(/C=C/c2cc(F)cc(F)c2)cc1

Result:
1: 3.8; 2: 3.1; 3: 63; 4: 5.7; 5: 9.2

###

Test system: T47D
experiment: Tested for cytotoxicity towards T47D cell line (human breast cancer)
Format: functional, cell-based
metric: Concentration

> print(dat)
                                   molecule         metric  value.reported
1          COc1cc(/C=C\c2ccc(F)cc2)cc(OC)c1  Concentration         > 10 µM
2        CCOc1ccc(/C=C/c2cc(OC)cc(OC)c2)cc1  Concentration        < 0.1 µM
3  COc1ccc(/C=C/c2cc(OC)cc(OC)c2)cc1 [TRISMETHOXYRESVERATROL]  Concentration        < 100 µM
4         Clc1ccc(/C=C\c2cc(Cl)cc(Cl)c2)cc1  Concentration        < 100 µM
5        CCOc1ccc(/C=C\c2cc(OC)cc(OC)c2)cc1  Concentration        < 0.1 µM
6      CCCCOc1ccc(/C=C/c2cc(OC)cc(OC)c2)cc1  Concentration         > 10 µM

Next:
Query: What is its Concentration for T47D? Entry: COc1cc(/C=C/c2ccc(F)cc2)cc(OC)c1
Result: > 10 µM
